The reported numbers originate from the supplement of paper PMC11003180.

- Tested on: MDCK p60AmotL2-inducible + doxycycline (p60AmotL2 expressing)
- method-description: drug sensitivity score (DSS) from 5-dose viability curve (DSS (area-based score, 0 = no response)); higher = more sensitive (stronger viability inhibition); extreme values may be limits of the assay
- condition-parameters: doxycycline: 10 ng/mL; 72 h
drug sensitivity score below 2 gives No; drug sensitivity score at or above it gives Yes.

{"columns": ["compound", "experimental-system", "classification"],
 "data": [
  ["O=c1[nH]c(C2CCCN2)nc2c1oc1ccc(Cl)cc12 (centres undefined)", "MDCK p60AmotL2-inducible + doxycycline (p60AmotL2 expressing)", "No"],
  ["CN(c1ncccc1CNc1nc(Nc2ccc3c(c2)CC(=O)N3)ncc1C(F)(F)F)S(C)(=O)=O", "MDCK p60AmotL2-inducible + doxycycline (p60AmotL2 expressing)", "Yes"],
  ["Cc1ccc(NC(=O)c2ccc(CN3CCN(C)CC3)cc2)cc1Nc1nc(-c2cccnc2)cs1", "MDCK p60AmotL2-inducible + doxycycline (p60AmotL2 expressing)", "Yes"],
  ["C[C@]1(c2nc3c(C(N)=O)cccc3[nH]2)CCCN1", "MDCK p60AmotL2-inducible + doxycycline (p60AmotL2 expressing)", "No"],
  ["Cn1c(=O)n(-c2ccc(C(C)(C)C#N)cc2)c2c3cc(-c4cnc5ccccc5c4)ccc3ncc21", "MDCK p60AmotL2-inducible + doxycycline (p60AmotL2 expressing)", "Yes"],
  ["NC(=O)c1cccc2cn(-c3ccc([C@@H]4CCCNC4)cc3)nc12", "MDCK p60AmotL2-inducible + doxycycline (p60AmotL2 expressing)", "Yes"],
  ["CCc1cncnc1N1CCN(Cc2nc3ccc(C(F)(F)F)cc3[nH]2)CC1", "MDCK p60AmotL2-inducible + doxycycline (p60AmotL2 expressing)", "No"],
  ["CNC(=O)c1cc(Oc2ccc(NC(=O)Nc3ccc(Cl)c(C(F)(F)F)c3)cc2)ccn1", "MDCK p60AmotL2-inducible + doxycycline (p60AmotL2 expressing)", "No"]
]}

Attention now shifts to the item below.
Reported drug sensitivity score reaches at least 2 for Cc1ncc(Cl)cc1NCc1ccc(C(=O)N[C@@H](CC2CCCC2)C(=O)NC2CC2)s1 ?
No
